target: T1, alpha-synuclein plaque particles (Homo sapiens, UniProt P37840); assay: Mass spectroscopy proteomics, semi-quantitative binding affinity of serum proteins (plaqueproteome, Table 2); settings: higher number = stronger affinity
T1 construct: 140 amino acids polypeptide
For each of the molecules below, state its Semi-quantitative analysis of proteins binding to different plaque particles: Synuclein.
The answer should be a number; do not append a unit.

Request: For the molecule Histone H1.3 (protein) SETAPLAPTIPAPAEKTPVKKKAKKAGATAGKRKASGPPVSELITKAVAASKERSGVSLAALKKALAAAGYDVEKNNSRIKLGLKSLVSKGTLVQTKGTGASGSFKLNKKAASGEGKPKAKKAGAAKPRKPAGAAKKPKKVAGAATPKKSIKKTPKKVKKPATAAGTKKVAKSAKKVKTPQPKKAAKSPAKAKAPKPKAAKPKSGKPKVTKAKKAAPKKK , give its reported Semi-quantitative analysis of proteins binding to different plaque particles: Synuclein.
Response: 0

Request: Look up and report measured Semi-quantitative analysis of proteins binding to different plaque particles: Synuclein for this entry: Protein S100-A7 (protein) SNTQAERSIIGMIDMFHKYTRRDDKIEKPSLLTMMKENFPNFLSACDKKGTNYLADVFEKKDKNEDKKIDFSEFLSLLGDIATDYHKQSHGAAPCSGGSQ
Response: 0

Request: Read off the recorded Semi-quantitative analysis of proteins binding to different plaque particles: Synuclein for Beta-2-glycoprotein 1 (protein) GRTCPKPDDLPFSTVVPLKTFYEPGEEITYSCKPGYVSRGGMRKFICPLTGLWPINTLKCTPRVCPFAGILENGAVRYTTFEYPNTISFSCNTGFYLNGADSAKCTEEGKWSPELPVCAPIICPPPSIPTFATLRVYKPSAGNNSLYRDTAVFECLPQHAMFGNDTITCTTHGNWTKLPECREVKCPFPSRPDNGFVNYPAKPTLYYKDKATFGCHDGYSLDGPEEIECTKLGNWSAMPSCKASCKVPVKKATVVYQGERVKIQEKFKNGMLHGDKVSFFCKNKEKKCSYTEDAQCIDGTIEVPKCFKEHSSLAFWKTDASDVKPC
Response: 7

Request: Let me know recorded Semi-quantitative analysis of proteins binding to different plaque particles: Synuclein for Peroxiredoxin-1 (protein) SSGNAKIGHPAPNFKATAVMPDGQFKDISLSDYKGKYVVFFFYPLDFTFVCPTEIIAFSDRAEEFKKLNCQVIGASVDSHFCHLAWVNTPKKQGGLGPMNIPLVSDPKRTIAQDYGVLKADEGISFRGLFIIDDKGILRQITVNDLPVGRSVDETLRLVQAFQFTDKHGEVCPAGWKPGSDTIKPDVQKSKEYFSKQK , thanks.
Response: 0

Request: Determine from records and report Semi-quantitative analysis of proteins binding to different plaque particles: Synuclein for Thioredoxin (protein) VKQIESKTAFQEALDAAGDKLVVVDFSATWCGPCKMIKPFFHSLSEKYSNVIFLEVDVDDCQDVASECEVKCMPTFQFFKKGQKVGEFSGANKEKLEATINELV
Response: 0
